Consider the following compounds; for each one, report its IC50.
# test_system: KRas G12V (Homo sapiens, UniProt P01116, G12V)
# Sequence (P01116 1-169 isoform P01116-2 G12V): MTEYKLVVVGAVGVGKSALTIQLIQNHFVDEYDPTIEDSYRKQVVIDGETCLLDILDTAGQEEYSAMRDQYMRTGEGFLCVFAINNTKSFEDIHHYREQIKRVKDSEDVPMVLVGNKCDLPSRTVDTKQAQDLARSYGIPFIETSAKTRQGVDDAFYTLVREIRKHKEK
# protocol_summary: biochemical
Field format: number, assumed nM, no unit text.

[ask] GET /values?readout=IC50&item= Fc1c(-c2cccc3cccc(F)c23)ncc2c(N3CCCOCC3)nc(OCC34CCCN3CCC4)nc12 [Example 42]
[reply] 1610

[ask] Form field: reported IC50 of CCc1c(F)ccc2cc(O)cc(-c3ncc4c(N5CCC[C@@](C)(O)C5)nc(OCC(C)(C)CN(C)C)nc4c3F)c12 [Example 366]
[reply] 3

[ask] Looking for the measured IC50 of CCc1c(F)ccc2cc(O)cc(-c3ncc4c(N5CCCCC(S(C)(=O)=O)C5)nc(OC[C@@]56CCCN5C[C@H](F)C6)nc4c3F)c12 (stereo partly shown) [Example 308] , can you help?
[reply] 4

[ask] Look at this compound and give its reported IC50. CC1(CNc2nc(OCC34CCCN3CCC4)nc3c(F)c(-c4cccc5cccc(F)c45)ncc23)CCC1 [Example 19]
[reply] 64500

[ask] Record request: IC50 value, item CCc1c(F)ccc2cc(O)cc(-c3ncc4c(NC5CCS(=O)(=O)C5)nc(OC[C@@]56CCCN5C[C@H](F)C6)nc4c3F)c12 (stereo partly shown) [Example 349]
[reply] 4

[ask] Which IC50 value is on record for Fc1c(-c2cccc3cccc(F)c23)ncc2c(N3CCOCC3)nc(OCC34CCCN3CCC4)nc12 [Example 49] ?
[reply] 27900

[ask] Item under review: Cc1cc2sc(N)nc2c(-c2ncc3c(N4CCCC(C)(O)C4)nc(OC[C@@]45CCCN4C[C@H](F)C5)nc3c2F)c1C (stereo partly shown) [Example 39] . Reported IC50?
[reply] 25500

[ask] Which value of IC50 has been reported for CCc1cccc2cccc(-c3ncc4c(NCc5cccnc5N)nc(OCC56CCCN5CCC6)nc4c3F)c12 [Example 204] in the records?
[reply] 43

[ask] Suppose we examine the compound NC(=O)NC1CCN(c2nc(OCC34CCCN3CCC4)nc3c(F)c(-c4cccc5cccc(F)c45)ncc23)CC1 [Example 243] ; what IC50 value has been reported?
[reply] 2190

----------
Can you tell me IC50 for the items I'm about to list?
# test_system: KRas G12V (Homo sapiens, UniProt P01116, G12V);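 further: KRas binding measured by TR-FRET displacement at room temperature, IC50 fitted from percent of control values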
# protocol_summary: biochemical

[ask] Recorded IC50 of CCc1c(F)ccc2cc(O)cc(-c3ncc4c(NCc5c[nH]c6ncccc56)nc(OC[C@@]56CCCN5C[C@H](F)C6)nc4c3F)c12 [Example 62] , please.
[reply] ≤ 2 nM

[ask] Look at this molecule and give its reported IC50. CCc1c(F)ccc2cc(O)cc(-c3ncc4c(N(C)Cc5cn[nH]c5)nc(OC[C@@]56CCCN5C[C@H](F)C6)nc4c3F)c12 [Example 163]
[reply] 14 nM

[ask] Which value of IC50 has been reported for CC1(O)COCCN(c2nc(OCC34CCCN3CCC4)nc3c(F)c(-c4cccc5cccc(F)c45)ncc23)C1 (stereo not drawn) [Example 64] in the records?
[reply] 1360 nM

[ask] Tell me the measured IC50 of CC1(O)COCCN(c2nc(OC[C@@]34CCCN3C[C@H](F)C4)nc3c(F)c(-c4cc(O)cc5ccc(F)c(Cl)c45)ncc23)C1 (stereo partly drawn) [Example 419] , please.
[reply] 3 nM

[ask] Look up IC50 for this molecule: Fc1c(-c2cccc3cccc(F)c23)ncc2c(N3CCCC4CCCC43)nc(OCC34CCCN3CCC4)nc12 (stereo not drawn) [Example 32]
[reply] ≥ 100000 nM

[ask] So what's the measured IC50 for this one? CCc1c(F)ccc2cc(O)cc(-c3ncc4c(N5CCOCC6(COC6)C5)nc(OC[C@@]56CCCN5C[C@H](F)C6)nc4c3F)c12 [Example 480]
[reply] 7 nM
